MEASUREMENT_TARGET: recombinant SARS-CoV-2 Main protease (Mpro) (Severe acute respiratory syndrome coronavirus 2 (2019-nCoV) (SARS-CoV-2))
TEST_METHOD_NOTES: Cov Mpro Biochemical IC50 Assay
ASSAY_CONTEXT: recombinant SARS-CoV-2 Mpro 7.5 nM, fluorogenic peptide substrate 40 μM; read-out: MPro IC50
Each record here notes measured pIC50.
Here pIC50 is given on a logarithmic scale as minus log10 of the concentration in mol/L.

Example results:
COc1cc(-c2cc3[nH]c(=O)n(-c4cncc5ccc(F)cc45)c(=O)c3s2)c(Cl)cc1F | 7.99
O=c1[nH]c2cc(-c3c(Cl)cccc3-c3ccnnc3)sc2c(=O)n1-c1cncc(C2CC2)c1 | 8.16
COc1ccc(C#N)c(-c2cc3[nH]c(=O)n(-c4cncc5ccc(N6CCOCC6)cc45)c(=O)c3cc2F)c1 | 8.16

Ask | // lookup pIC50 for COc1cnc(C#N)c(-c2cc3c(s2)c(=O)n(-c2cncc(C)c2)c(=O)n3CCC#N)c1
Reply | 7.98

---

System: SARS-CoV-2-NLuc
TEST_METHOD_NOTES: microbe, parasite or virus in culture
Assay type: cell-based, SARS Coronavirus 2
ASSAY_CONTEXT: Severe acute respiratory syndrome coronavirus, 48 h; read-out: MPro EC50
Assign classes using reported EC50 values and the ranges lo = under 40 nM, med = from 40 nM up to 100 nM, hi = 100 nM and over, please.

// known answers, use as guide
CNC(=O)CCn1c(=O)n(-c2cncc3ccccc23)c(=O)c2sc(-c3ccccc3Cl)cc21 | med
COc1cc(-c2cc3c(s2)c(=O)n(-c2cncc4c2c(C(F)(F)F)nn4COCC[Si](C)(C)C)c(=O)n3CCC#N)c(Cl)cc1F | hi
N#CCCn1c(=O)n(-c2cncc(F)c2)c(=O)c2sc(-c3ccccc3C#N)cc21 | hi

Ask | Classify this compound: Cc1cncc(-n2c(=O)c3sc(-c4ccc(F)cc4C#N)cc3n(CCC#N)c2=O)c1
Reply | med

Ask | Record: O=c1[nH]c2cc(-c3ccccc3)c(F)cc2c(=O)n1-c1cncc2ccccc12
Reply | hi

Ask | And what about the compound O=c1[nH]c2cc(-c3ccccc3C(F)(F)F)ccc2c(=O)n1-c1cncc2ccccc12 ?
Reply | hi

Ask | Also need COc1cc(-c2cc3[nH]c(=O)n(-c4cncc5nccn45)c(=O)c3s2)c(Cl)cc1F , thanks.
Reply | hi

Ask | Can you handle COc1cc(-c2cc3[nH]c(=O)n(-c4nncc5ccccc45)c(=O)c3s2)c(Cl)cc1F next?
Reply | med

Ask | Param item: O=c1[nH]c2cc(-c3ccccc3Cl)sc2c(=O)n1-c1cnccc1N1CCNCC1
Reply | hi

Ask | Do the same for COc1cc2c(=O)n(-c3cncc4ccccc34)c(=O)[nH]c2cc1-c1c(Cl)cccc1OC please
Reply | hi

Ask | Same again, this time with N#CCCn1c(=O)n(-c2cnccn2)c(=O)c2sc(-c3ccccc3C#N)cc21
Reply | hi

Ask | Consider next the compound COc1cnc(Cl)c(-c2cc3c(s2)c(=O)n(-c2cncc(C(F)F)c2)c(=O)n3CCC#N)c1 in the same way.
Reply | med

---

MEASUREMENT_TARGET: recombinant SARS-CoV-2 Main protease (Mpro) (Severe acute respiratory syndrome coronavirus 2 (2019-nCoV) (SARS-CoV-2), UniProt P0DTD1)
TEST_METHOD_NOTES: Cov Mpro Biochemical IC50 Assay
ASSAY_CONTEXT: recombinant SARS-CoV-2 Mpro, fluorogenic peptide substrate; read-out: MPro IC50
MEASURED_QUANTITY: IC50 (nM)
Write down the numeric answer in nM and omit the unit.

Some solved entries appear below for comparison.
O=c1[nH]c2cc(-c3cc(OC(F)(F)F)ccc3Cl)sc2c(=O)n1-c1cncc2ccccc12 | 110
Cc1c(-c2cccc(Cl)c2-c2ccc3c(=O)n(-c4cncc5ccccc45)c(=O)[nH]c3c2)cnn1C1CCN(C(=O)OC(C)(C)C)CC1 | 131

// next entry
Ask | Any idea what its IC50 is? The molecule is O=c1[nH]c2cc(-c3c(Cl)cccc3-c3ccnc(C(F)(F)F)c3)ccc2c(=O)n1-c1cncc2ccccc12
Reply | 78.6
